// data source = patent US7655679B2

- target: human PPARdelta (Homo sapiens)
- Construct: amino acids S139-Y441; plasmid pcDNA3
- Sequence (Q03181 139-441): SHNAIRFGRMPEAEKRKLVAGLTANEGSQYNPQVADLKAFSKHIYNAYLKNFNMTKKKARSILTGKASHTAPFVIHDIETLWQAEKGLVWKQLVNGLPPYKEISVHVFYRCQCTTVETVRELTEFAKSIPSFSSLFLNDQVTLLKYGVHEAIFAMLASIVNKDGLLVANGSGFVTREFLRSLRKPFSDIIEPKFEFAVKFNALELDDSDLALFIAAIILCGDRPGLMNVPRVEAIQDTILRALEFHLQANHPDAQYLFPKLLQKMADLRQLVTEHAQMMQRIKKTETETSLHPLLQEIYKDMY
- measurement.notes: Cellular PPARdelta assay (luciferase reporter, stably transfected HEK cell line)
- condition.notes: GR-GAL4-humanPPARdelta-LBD
Counter-ions that a name gives are not always drawn.
recorded.endpoint: EC50 (nM)

# molecule, recorded.endpoint, numeric.readout
rows = [
    ("CN(C)CCN(Cc1ccc(-c2noc(=O)[nH]2)c(C(F)(F)F)c1)c1nc2ccc(C(F)(F)F)cc2s1 [Example 33, trifluoroacetate]", "EC50", 1800),
]

[I] COCCN(CCc1ccc(-c2noc(=O)[nH]2)cc1)c1nc(-c2ccc(Cl)cc2)cs1
[II] CCCCN(Cc1ccc(-c2noc(=O)[nH]2)c(F)c1)c1nc2ccc(C(F)(F)F)cc2s1
[III] COCCCN(CCc1ccc(-c2noc(=O)[nH]2)c(C)c1)c1nc2ccc(C(F)(F)F)cc2s1
Q: Sort by EC50, descending. Respond with the label ranking, as requested.
Result: I, II, III
(I: 650 nM, II: 270 nM, III: 4 nM)

---

- target: human PPARalpha (Homo sapiens, UniProt Q07869)
- Construct: amino acids S167-Y468; expressed in transfected cells; host or cells: HEK (human embryo kidney) cells, stably transfected; plasmid pcDNA3
- Sequence (Q07869 167-468): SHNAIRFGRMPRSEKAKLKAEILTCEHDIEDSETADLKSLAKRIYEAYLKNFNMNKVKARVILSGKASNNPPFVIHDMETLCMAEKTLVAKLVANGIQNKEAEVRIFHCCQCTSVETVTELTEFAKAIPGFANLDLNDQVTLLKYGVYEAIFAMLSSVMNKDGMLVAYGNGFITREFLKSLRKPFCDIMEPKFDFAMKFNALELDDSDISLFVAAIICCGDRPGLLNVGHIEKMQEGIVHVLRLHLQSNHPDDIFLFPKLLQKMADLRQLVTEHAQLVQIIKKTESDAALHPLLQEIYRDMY
- measurement.notes: Cellular PPARalpha assay (luciferase reporter, stably transfected HEK cell line)
- Format: cell-based
- condition.notes: GR-GAL4-humanPPARalpha-LBD
Structures can show the parent of a compound that is named as a salt.
recorded.endpoint: EC50 (nM)

Examples from the recorded data:
# compound, numeric.readout
data = [
    ("CCCCN(Cc1ccc(-c2noc(=O)[nH]2)c(F)c1)c1nc2ccc(C(F)(F)F)cc2s1 [Example 24]", 1350),
    ("Cc1cc(CCN(CC2CCOCC2)c2nc3ccc(C(F)(F)F)cc3s2)ccc1-c1noc(=O)[nH]1 [Example 9]", 60),
    ("COCCN(Cc1ccc(-c2noc(=O)[nH]2)c(F)c1)c1nc2ccc(C(F)(F)F)cc2s1 [Example 28]", 1020),
    ("COCCN(CCc1ccc(-c2noc(=O)[nH]2)cc1)c1nc(-c2ccc(Cl)cc2)cs1 [Example 23]", 820),
]

[1] CN(C)CCN(Cc1ccc(-c2noc(=O)[nH]2)c(C(F)(F)F)c1)c1nc2ccc(C(F)(F)F)cc2s1 [Example 33, trifluoroacetate]
[2] COCCCN(CCc1ccc(-c2noc(=O)[nH]2)c(C)c1)c1nc2ccc(C(F)(F)F)cc2s1 [Example 14]
[3] COCCCN(Cc1ccc(-c2noc(=O)[nH]2)c(F)c1)c1nc(-c2ccc(Cl)cc2)cs1 [Example 39]
Q: List by increasing EC50. Respond with the label ranking, as requested.
Result: 2, 3, 1
